- measuredOn: recombinant MPO (Homo sapiens, UniProt P05164)
- Construct: made in house
- Sequence (P05164 49-745): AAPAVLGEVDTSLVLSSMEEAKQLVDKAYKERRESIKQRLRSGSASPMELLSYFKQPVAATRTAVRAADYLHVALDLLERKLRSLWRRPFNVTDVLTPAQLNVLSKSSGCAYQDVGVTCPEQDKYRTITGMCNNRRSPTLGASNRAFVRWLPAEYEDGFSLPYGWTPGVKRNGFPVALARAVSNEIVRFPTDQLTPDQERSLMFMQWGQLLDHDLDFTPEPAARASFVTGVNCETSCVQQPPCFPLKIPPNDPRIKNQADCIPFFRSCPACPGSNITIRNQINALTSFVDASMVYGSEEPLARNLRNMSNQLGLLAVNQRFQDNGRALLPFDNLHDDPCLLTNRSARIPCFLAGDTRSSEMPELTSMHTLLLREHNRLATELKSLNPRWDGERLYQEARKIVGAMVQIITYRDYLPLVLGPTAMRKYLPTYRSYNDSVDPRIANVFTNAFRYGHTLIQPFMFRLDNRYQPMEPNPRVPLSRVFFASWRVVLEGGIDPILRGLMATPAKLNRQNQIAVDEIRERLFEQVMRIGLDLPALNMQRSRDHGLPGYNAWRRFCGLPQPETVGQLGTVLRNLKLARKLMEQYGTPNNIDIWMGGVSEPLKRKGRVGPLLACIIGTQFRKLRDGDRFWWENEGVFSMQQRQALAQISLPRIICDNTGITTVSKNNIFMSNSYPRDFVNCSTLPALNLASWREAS
- experimentalDetails: Myeloperoxidase inhibition (MPO) assay, taurine chloramine production by the MPO/H2O2/Cl- system
- Assay type: biochemical
- measurementParameters: inhibition of myeloperoxidase enzyme, Table 1, compounds of the invention; read-out: IC50
Counter-ions that a name gives are not always drawn.

{"compound": "NCCCCc1c[nH]c2c(F)cccc12 [Compound 30, oxalate]", "resultUnit": "nM", "IC50": 6}
{"compound": "N#CSCCCc1c[nH]c2ccc(F)cc12", "resultUnit": "nM", "IC50": 5}
{"compound": "ONCCCc1c[nH]c2ccc(F)cc12", "resultUnit": "nM", "IC50": 11}
{"compound": "NC(=O)CCCc1c[nH]c2ccc(F)cc12", "resultUnit": "nM", "IC50": 18}
{"compound": "NCCSCCc1c[nH]c2ccc(F)cc12 [Compound 32, oxalate]", "resultUnit": "nM", "IC50": 4}
{"compound": "CCN(CCc1c[nH]c2ccc(F)cc12)S(C)(=O)=O", "resultUnit": "nM", "IC50": 14}
{"compound": "NCCSCCc1c[nH]c2c(F)cccc12 [Compound 43, oxalate]", "resultUnit": "nM", "IC50": 3}

Cited source: patent EP2682119A1
